# TARGET_DESC: human PI3Kα (Homo sapiens, UniProt P42336)
# Construct: made in house
# Sequence (P42336 with tags, fused parts or gaps limits assumed): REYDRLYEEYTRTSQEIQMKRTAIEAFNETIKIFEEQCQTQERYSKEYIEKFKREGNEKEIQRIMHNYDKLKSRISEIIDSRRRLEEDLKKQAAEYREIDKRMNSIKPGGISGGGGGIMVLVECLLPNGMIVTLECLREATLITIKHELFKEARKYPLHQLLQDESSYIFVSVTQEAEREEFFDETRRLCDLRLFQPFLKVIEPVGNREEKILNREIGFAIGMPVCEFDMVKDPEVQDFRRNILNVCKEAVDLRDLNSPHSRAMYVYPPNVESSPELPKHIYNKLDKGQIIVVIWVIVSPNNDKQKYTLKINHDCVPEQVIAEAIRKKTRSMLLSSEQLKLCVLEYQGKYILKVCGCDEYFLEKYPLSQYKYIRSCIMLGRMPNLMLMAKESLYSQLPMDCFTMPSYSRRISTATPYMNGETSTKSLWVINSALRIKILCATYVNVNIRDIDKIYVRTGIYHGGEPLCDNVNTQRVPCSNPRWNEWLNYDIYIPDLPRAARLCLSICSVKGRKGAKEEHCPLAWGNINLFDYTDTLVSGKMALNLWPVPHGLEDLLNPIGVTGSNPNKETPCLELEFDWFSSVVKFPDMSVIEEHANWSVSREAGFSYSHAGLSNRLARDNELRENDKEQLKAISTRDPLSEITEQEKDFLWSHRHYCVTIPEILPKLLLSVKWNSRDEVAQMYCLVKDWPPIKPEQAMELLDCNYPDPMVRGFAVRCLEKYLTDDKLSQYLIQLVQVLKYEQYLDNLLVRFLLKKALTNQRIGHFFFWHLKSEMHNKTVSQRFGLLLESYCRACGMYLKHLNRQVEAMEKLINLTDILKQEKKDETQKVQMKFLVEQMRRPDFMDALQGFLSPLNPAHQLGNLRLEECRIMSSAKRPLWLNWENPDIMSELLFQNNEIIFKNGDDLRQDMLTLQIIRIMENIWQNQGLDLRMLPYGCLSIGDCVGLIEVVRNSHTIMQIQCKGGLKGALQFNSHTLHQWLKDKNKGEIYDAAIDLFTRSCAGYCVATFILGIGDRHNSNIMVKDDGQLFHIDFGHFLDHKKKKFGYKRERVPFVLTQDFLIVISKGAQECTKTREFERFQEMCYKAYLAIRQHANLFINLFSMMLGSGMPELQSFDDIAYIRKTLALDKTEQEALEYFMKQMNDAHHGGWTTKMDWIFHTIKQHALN
# TEST_DETAILS: Biochemical PI3Kalpha (KinaseGlo luminescent kinase assay)
# SETUP_CONDITIONS: biochemical, 1 μM ATP, mean of n measurements

COMPOUND: C[C@H]1OC(=O)N(c2cc(-c3cnc(N)nc3C(F)(F)F)nc(N3CCOCC3)n2)[C@H]1CO
TARGET_DESC: human PI3Kα (Homo sapiens, UniProt P42336)
PI3Ka/ IC50 / umol I-1: 0.009
--
COMPOUND: C[C@H]1[C@H](CO)OC(=O)N1c1cc(-c2cnc(N)nc2C(F)(F)F)nc(N2CCOCC2)n1
TARGET_DESC: human PI3Kα (Homo sapiens, UniProt P42336)
PI3Ka/ IC50 / umol I-1: 0.026
--
COMPOUND: Nc1ncc(-c2cc(N3C(=O)OC[C@@H]3CCO)nc(N3CCOCC3)n2)c(C(F)(F)F)n1
TARGET_DESC: human PI3Kα (Homo sapiens, UniProt P42336)
PI3Ka/ IC50 / umol I-1: 0.384
--
COMPOUND: Nc1ncc(-c2cc(N3CCOC3=O)nc(N3CCOCC3)n2)c(C(F)(F)F)n1 [Example 11, reference compound]
TARGET_DESC: human PI3Kα (Homo sapiens, UniProt P42336)
PI3Ka/ IC50 / umol I-1: 0.038
--
COMPOUND: C[C@H]1OC(=O)N(c2cc(-c3cnc(N)nc3C(F)(F)F)nc(N3CCOC[C@@H]3C)n2)[C@H]1CO
TARGET_DESC: human PI3Kα (Homo sapiens, UniProt P42336)
PI3Ka/ IC50 / umol I-1: 0.008
--
COMPOUND: [2H]C1([2H])OC([2H])([2H])C([2H])([2H])N(c2nc(-c3cnc(N)nc3C(F)(F)F)cc(N3C(=O)O[C@H](C)[C@@H]3CO)n2)C1([2H])[2H]
TARGET_DESC: human PI3Kα (Homo sapiens, UniProt P42336)
PI3Ka/ IC50 / umol I-1: 0.013
--
COMPOUND: Nc1ncc(-c2cc(N3C(=O)O[C@H]4CCCC[C@@H]43)nc(N3CCOCC3)n2)c(C(F)(F)F)n1
TARGET_DESC: human PI3Kα (Homo sapiens, UniProt P42336)
PI3Ka/ IC50 / umol I-1: 0.014

----------
# TARGET_DESC: UniProt:O00329
pIC50: −log10 of the molar value.
Label rule, in plain words: pIC50 of 8 and up is 1, under 8 is 0.

COMPOUND: Nc1ncc(-c2cc(N3C(=O)OC4C(O)CCC43)nc(N3CCOCC3)n2)c(C(F)(F)F)n1 (single isomer, unassigned) [Example 22B]
CLASS_ASSIGNMENT: 1
--
COMPOUND: C[C@H]1COCCN1c1nc(-c2cnc(N)nc2C(F)(F)F)cc(N2C(=O)OC[C@@H]2C)n1 [Example 13]
CLASS_ASSIGNMENT: 0
--
COMPOUND: Nc1ncc(-c2cc(N3CCOC3=O)nc(N3CCOCC3)n2)c(C(F)(F)F)n1 [Example 11, reference compound]
CLASS_ASSIGNMENT: 0
--
COMPOUND: COC[C@H]1COC(=O)N1c1cc(-c2cnc(N)nc2C(F)(F)F)nc(N2CCOCC2)n1 [Example 5]
CLASS_ASSIGNMENT: 1

----------
# key: entry, value: pIC50
# TARGET_DESC: mTOR (Mus musculus)
# Construct: endogenous in cells; host or cells: TSC1-/- MEF (mouse embryo fibroblasts)
# TEST_DETAILS: Cellular assay mTOR (phospho-T389 S6K1 SureFire in TSC1-/- MEF cells)
# Format: cell-based
# SETUP_CONDITIONS: TSC1-/- MEF cells; read-out: mTOR S6K(T389)_TSC1ko/ IC50
pIC50: −log10 of the molar value.

COMPOUND: Nc1ncc(-c2cc(N3C[C@H](CO)OC3=O)nc(N3CCOCC3)n2)c(C(F)(F)F)n1
TARGET_DESC: mTOR (Mus musculus)
COMPARATOR: <
pIC50: 5.64
--
COMPOUND: C[C@H]1OC(=O)N(c2cc(-c3cnc(N)nc3C(F)(F)F)nc(N3CCOCC3)n2)[C@H]1CO
TARGET_DESC: mTOR (Mus musculus)
COMPARATOR: =
pIC50: 6.10
--
COMPOUND: Nc1ncc(-c2cc(N3C(=O)OC4C(O)CCC43)nc(N3CCOCC3)n2)c(C(F)(F)F)n1 (single isomer, unassigned) [Example 22B]
TARGET_DESC: mTOR (Mus musculus)
COMPARATOR: =
pIC50: 5.64
--
COMPOUND: C[C@H]1C(CC(C)(C)O)OC(=O)N1c1cc(-c2cnc(N)nc2C(F)(F)F)nc(N2CCOCC2)n1 (mixture of isomers)
TARGET_DESC: mTOR (Mus musculus)
COMPARATOR: =
pIC50: 6.07

----------
# TARGET_DESC: UniProt:O00329
# Sequence (O00329 2-1044 limits assumed): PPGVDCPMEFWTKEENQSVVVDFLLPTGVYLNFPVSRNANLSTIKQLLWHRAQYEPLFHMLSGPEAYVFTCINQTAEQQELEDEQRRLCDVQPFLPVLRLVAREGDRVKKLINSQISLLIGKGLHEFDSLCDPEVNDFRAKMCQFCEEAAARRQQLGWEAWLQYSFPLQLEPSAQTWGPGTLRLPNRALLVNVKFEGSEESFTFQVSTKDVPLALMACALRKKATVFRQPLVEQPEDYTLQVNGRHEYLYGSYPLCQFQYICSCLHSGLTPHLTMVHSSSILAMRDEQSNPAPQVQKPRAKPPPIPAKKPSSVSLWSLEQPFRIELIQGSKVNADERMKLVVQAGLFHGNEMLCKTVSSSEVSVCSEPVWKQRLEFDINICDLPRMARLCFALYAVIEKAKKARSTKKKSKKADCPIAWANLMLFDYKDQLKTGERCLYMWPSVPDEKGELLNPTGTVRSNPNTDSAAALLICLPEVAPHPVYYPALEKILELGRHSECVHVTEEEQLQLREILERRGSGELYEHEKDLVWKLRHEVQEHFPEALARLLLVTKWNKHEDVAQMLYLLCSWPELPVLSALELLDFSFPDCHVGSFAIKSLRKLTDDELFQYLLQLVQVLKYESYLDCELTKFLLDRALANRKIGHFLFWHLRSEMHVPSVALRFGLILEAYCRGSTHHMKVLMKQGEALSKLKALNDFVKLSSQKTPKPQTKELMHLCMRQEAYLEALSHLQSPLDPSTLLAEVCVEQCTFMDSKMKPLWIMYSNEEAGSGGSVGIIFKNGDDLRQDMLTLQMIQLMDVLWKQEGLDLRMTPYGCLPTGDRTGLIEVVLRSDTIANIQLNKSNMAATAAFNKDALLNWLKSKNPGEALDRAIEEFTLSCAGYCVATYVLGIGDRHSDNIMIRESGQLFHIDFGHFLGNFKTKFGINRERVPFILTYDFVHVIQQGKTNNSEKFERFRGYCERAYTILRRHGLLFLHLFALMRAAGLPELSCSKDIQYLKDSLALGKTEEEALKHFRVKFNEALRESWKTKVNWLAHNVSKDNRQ
pIC50: −log10 of the molar value.
pIC50 values, listed per item

COMPOUND: C[C@H]1C(CC(C)(C)O)OC(=O)N1c1cc(-c2cnc(N)nc2C(F)(F)F)nc(N2CCOCC2)n1 (mixture of isomers)
pIC50: 7.92
//
COMPOUND: C[C@H]1OC(=O)N(c2cc(-c3cnc(N)nc3C(F)(F)F)nc(N3CCOC[C@@H]3C)n2)[C@H]1CO
pIC50: 7.92
//
COMPOUND: C[C@H](O)CC1OC(=O)N(c2cc(-c3cnc(N)nc3C(F)(F)F)nc(N3CCOCC3)n2)[C@H]1C (single isomer, unassigned)
pIC50: 8.15
//
COMPOUND: CC1(CO)COC(=O)N1c1cc(-c2cnc(N)nc2C(F)(F)F)nc(N2CCOCC2)n1 (racemic)
pIC50: 7.92
